Assay: Clinical pharmacokinetics study in healthy volunteers, IV bolus + 1-step infusion
Type: in vivo, human
Conditions: both sexes, human, plasma, iv, bolus 0.9 μg/kg, infusion 1.7 μg/kg/hr for 12 hours; read-out: AOL plasma concentration End of 12-hour infusion (IV)
Description: The concentration of AOL in the subject's plasma can be measured by means and methods well known to the skilled artisan, such as liquid chromatography-mass spectrometry (LC/MS) or any other suitable means or method. […] Immediately after centrifugation, the plasma sample can be analyzed to assess the concentration of AOL by liquid chromatography-mass spectrometry (LC/MS). […]
reported endpoint: concentration at 12 hours

Inquiry: Supply concentration at 12 hours value. Item: COc1ccc(-c2cc(=S)ss2)cc1 [AOL, 5-(4-methoxyphenyl)dithiole-3-thione]
Reply text: ~0.8 ng/mL
